experiment: THP-1 cell cytotoxicity, dose response, cytotoxicity control for non-replicating M. tuberculosis project (AID 489025); settings: THP-1 cell viability; series mostly up to 40 µM
In all, about 2,300 compounds went through this assay and about 790 (34%) were called active. The list shows a part of the results. Measured potencies and affinities stand elsewhere.

smiles-repr	outcome
O=C1C=CC(=O)N1N(c1ccccc1)c1ccccc1	inactive
CCOC(=O)Nc1cccc(OCC(=O)Nc2ccc(OC)cc2OC)c1	inactive
O=C(COc1ccc(Cl)cc1)OCC(=O)N1CCCc2ccccc21	inactive

Values from PubChem BioAssay AID489025
